Source listed as patent US12116343B2.

- STUDY TARGET: G1 APOL1 (Homo sapiens, UniProt O14791, I384M/S342G)
- Construct: expressed in transfected cells
- ASSAY PROCEDURE: Acute APOL1 Thallium Assay with inducible stable clones of HEK 293 cells
- Type: cell-based
- CONDITION DESCRIPTION: HEK 293 T-Rex cells expressing G1 APOL1; read-out: Thallium Assay (IC50)
pIC50: −log10 of the molar value.
MEASUREMENT NAME: pIC50

INSERT INTO measurements (molecule, measurement_name, reading) VALUES
  ('NC(=O)C1CC(c2c(-c3ccc(F)cc3)[nH]c3c(F)cc(F)cc23)C1 (stereo not shown)', 'pIC50', '6.00 to 6.60'),
  ('O=C(NC(CO)CO)[C@H]1C[C@H](c2c(-c3ccc(F)cc3)[nH]c3c(F)cc(F)cc32)C1', 'pIC50', '> 6.60'),
  ('O=C1CCC(NC(=O)[C@H]2C[C@H](c3c(-c4ccc(F)cc4)[nH]c4c(F)cc(F)cc43)C2)C(=O)N1 (stereo partly shown)', 'pIC50', '6.00 to 6.60'),
  ('CN(C)C(=O)CN(C)C(=O)[C@H]1C[C@H](c2c(-c3ccc(F)cc3)[nH]c3c(F)cc(F)cc32)C1', 'pIC50', '6.00 to 6.60'),
  ('CC(CO)N(C)C(=O)[C@H]1C[C@H](c2c(-c3ccc(F)cc3)[nH]c3c(F)cc(F)cc32)C1 (mixture of isomers)', 'pIC50', '6.00 to 6.60');

query: Observed pIC50 on G1 APOL1 (Homo sapiens, UniProt O14791, I384M/S342G) for CCC(O)(CCCO)CNC(=O)[C@H]1C[C@H](c2c(-c3ccc(F)cc3)[nH]c3c(F)cc(F)cc32)C1 (stereo partly shown) , please.
result: < 6.00

query: Observed pIC50 on G1 APOL1 (Homo sapiens, UniProt O14791, I384M/S342G) for O=C(NCc1cnco1)[C@H]1C[C@H](c2c(-c3ccc(F)cc3)[nH]c3c(F)cc(F)cc32)C1 , please.
result: 6.00 to 6.60

====

- STUDY TARGET: G1 APOL1 (Homo sapiens, UniProt O14791, I384M/S342G)
- Construct: expressed in transfected cells
- Sequence (O14791 28-398 S342G/I384M): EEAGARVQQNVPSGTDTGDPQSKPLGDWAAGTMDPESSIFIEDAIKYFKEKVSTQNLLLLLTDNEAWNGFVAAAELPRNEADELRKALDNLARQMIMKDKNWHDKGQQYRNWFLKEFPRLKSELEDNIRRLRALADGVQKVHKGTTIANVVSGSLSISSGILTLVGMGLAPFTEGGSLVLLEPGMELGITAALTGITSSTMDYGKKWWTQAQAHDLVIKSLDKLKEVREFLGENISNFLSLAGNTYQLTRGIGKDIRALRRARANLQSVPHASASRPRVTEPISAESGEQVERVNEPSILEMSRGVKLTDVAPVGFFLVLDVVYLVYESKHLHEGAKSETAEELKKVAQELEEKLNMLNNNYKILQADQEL
- ASSAY PROCEDURE: Acute APOL1 Thallium Assay with inducible stable clones of HEK 293 cells
- Assay type: cell-based
- CONDITION DESCRIPTION: HEK 293 T-Rex cells expressing G1 APOL1; read-out: Thallium Assay (IC50)
Here, each record is paired with measured IC50 data.

INSERT INTO measurements (compound, reading) VALUES
  ('COCC1(NC(=O)[C@H]2C[C@H](c3c(-c4ccc(F)cc4)[nH]c4c(F)cc(F)cc43)C2)CC1', '< 250 nM'),
  ('NC(=O)CNC(=O)C1CC(c2c(-c3ccc(F)cc3)[nH]c3c(F)cc(C(F)(F)F)cc23)C1 (stereo not shown)', '< 250 nM'),
  ('O=C(NC1(CO)CC1)C1(F)CC(c2c(-c3ccc(F)cc3)[nH]c3c(F)cc(F)cc23)C1 (stereo not shown)', '< 250 nM');

With those in mind, consider the next compound.
query: // returns reported IC50 for input O=C1OCC[C@@H]1NC(=O)[C@H]1C[C@H](c2c(-c3ccc(F)cc3)[nH]c3c(F)cc(F)cc32)C1
result: 250 to 1000 nM
